test system: SK-MEL-5 melanoma; assay: NCI-60 one-dose screen, 48 h; conditions: 10 µM unless noted
Compounds without any hit were thinned out: in the full panel of roughly 83,000, 20% have a hit. The source made the active and inactive calls. The calls were made as follows: active = growth percent below 10; inactive = the rest.
Classes used: 1.0 for active, 0.0 for inactive

>  <Compound>
O=C(NC1CCN(Cc2ccccc2)CC1)c1cc(C(=O)NC2CCN(Cc3ccccc3)CC2)cc(C(=O)NC2CCN(Cc3ccccc3)CC2)c1

>  <Cat>
0.0

$$$$
>  <Compound>
COc1ccc(-n2c(C(O)c3ccccc3)nn(CN3CCOCC3)c2=S)cc1 (configuration not stated)

>  <Cat>
0.0

$$$$
>  <Compound>
O=C(/C=C/c1ccc(Cl)cc1)c1ccc(Nc2nc(NCCO)nc(Nc3ccc(Cl)cc3)n2)cc1

>  <Cat>
0.0

$$$$
>  <Compound>
COc1ccc(Cn2c(Br)c3c(c2Br)-c2nc(N)sc2CC3)cc1

>  <Cat>
0.0

$$$$
>  <Compound>
CN1CCN(Cc2ccc(C(=O)Nc3cncc(C#Cc4cnc(N)c5ccccc45)c3)cc2C(F)(F)F)CC1

>  <Cat>
1.0

$$$$
>  <Compound>
CC1=C(C(=O)OCC2CCN(C(=O)OC(C)(C)C)CC2)[C@H](c2cccc(Br)c2)C2=C(CC(C)(C)CC2=O)N1

>  <Cat>
1.0

$$$$
>  <Compound>
O=C(c1nc2ccccc2[nH]1)C1[C@@H](c2cccc(O)c2)C2CC3CCCCC3N2[C@@]12C(=O)Nc1cc(Cl)ccc12 (some centres not stated)

>  <Cat>
0.0

$$$$
